subject_of_test: Concanavalin-A (Canavalia ensiformis) (UniProt P02866)
Sequence (P02866 whole entry, looked up): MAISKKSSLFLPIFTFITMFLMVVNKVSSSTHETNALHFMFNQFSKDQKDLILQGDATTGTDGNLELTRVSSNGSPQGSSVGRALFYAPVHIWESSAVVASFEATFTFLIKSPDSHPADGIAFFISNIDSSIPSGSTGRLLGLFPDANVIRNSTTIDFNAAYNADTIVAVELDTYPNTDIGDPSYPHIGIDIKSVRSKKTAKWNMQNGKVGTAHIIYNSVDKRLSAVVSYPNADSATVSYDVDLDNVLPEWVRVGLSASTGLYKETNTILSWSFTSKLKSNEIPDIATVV
assay_details: ConA small-molecule binders, primary screen, artefact control for SMM control protein annotation, biochemical, small-molecule microarray, Alexa647 label, 635 nm (AID 1127);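 also: z combines 667 nm emission intensity with signal-to-noise across three replicate slides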
condition_summary: ConA-A647 binding fluorescence, higher = more signal
For each of the molecules below, state its composite z-score.
Please state the value as a number alone, without comment.

Notebook: pull reported composite z-score for Concanavalin-A (Canavalia ensiformis) (UniProt P02866), entry COc1ccc(C(=O)Nc2cccc(CN3C(=O)[C@@]4(O[C@@H](CCO)[C@H]([Si](C)(C)c5ccc(OC)cc5)[C@H]4C)c4ccccc43)c2)cc1 1.01

Entry to check: NC(=O)N1C(=O)C2C(C1=O)C1C=C(c3ccc(CO)cc3)C2C(C2CC2)N1Cc1cc2c(cc1Br)OCO2 (configuration not stated) 0.574

Entry to check: CCCCCCC#C[Si](O[C@H](c1ccccc1)c1cn(Cc2ccccc2)nn1)(C(C)C)C(C)C 0.132

Entry to check: C=CCC(OC(C)=O)[C@@H]1[C@@H](N(Cc2cccc3ccccc23)C(=O)c2cccc3ccccc23)c2cc(OCCCO)ccc2N1C(=O)Cc1ccc(OC)cc1 (some centres not stated) -0.653

Entry to check: C=C(CCCC)/C(=C/C[C@@H](OC(=O)c1ccncc1)c1ccc(OCCO)cc1)c1cnc2ccccc2c1 1.15

Entry to check: C=C(/C(=C/C[C@H](OC(C)=O)c1cccc(OCCO)c1)c1cc(C(=O)OC)ccc1OC)C(C)C -0.319

Entry to check: CC(C)C(CO)N1C(=O)[C@@H]2[C@H]3C(=O)OCC=C[C@H]3OC23C=CCN(Cc2ccccc2)C(=O)[C@@H]13 (some centres not stated) -2.22

Entry to check: COCCCNC(=O)[C@@]1(Cc2ccccc2)N=C(c2ccc(OCCCO)cc2)O[C@H]1c1ccccc1N=[N+]=[N-] 0.0647

Entry to check: CO[C@H]1O[C@H](CO)[C@@H](OC(=O)Nc2ccccc2)[C@H](OC(=O)Nc2ccc3c(c2)OCO3)[C@H]1OC(=O)Nc1ccc2c(c1)OCO2 1.18

Entry to check: CC(C)(C)OC(=O)CC[C@]1(C(=O)NCc2ccccc2)N=C(c2ccc(OCCCO)cc2)O[C@H]1c1ccccc1N=[N+]=[N-] 1.16

Entry to check: CC(CO)N1C(=O)[C@@H]2C3C(=O)OCCC/C=C\[C@H]3OC23C=CCN(Cc2ccccc2)C(=O)[C@@H]13 (some centres not stated) -2.2

Entry to check: COc1ccc([Si](C)(C)[C@@H]2[C@@H](CCn3cc([C@H](O)c4ccccc4)nn3)O[C@]3(C(=O)N(C)c4c(Br)cc(C)cc43)[C@H]2C)cc1 -0.679

Entry to check: [N-]=[N+]=NCc1ccccc1C[C@@]1(C(=O)NCc2ccccc2)N=C(c2ccc(OCCCO)cc2)O[C@@H]1c1ccccc1 0.266

Entry to check: CO[C@H]1O[C@H](CO)[C@@H](OC(=O)CCc2ccccc2)[C@@H]2OC(=O)[C@H](Cc3ccccc3)C/C=C/C[C@@H](Cc3ccccc3)C(=O)O[C@@H]12 -1.04

Entry to check: CCCCCN1CC=CC23O[C@@H]4/C=C\CCC(C)OC(=O)C4[C@H]2C(=O)N(CCO)[C@@H]3C1=O (some centres not stated) -0.773

Entry to check: C=CCN1C(=O)[C@@]2(O[C@@H](CCO)[C@H]([Si](C)(C)c3ccc(OC)cc3)[C@H]2C)c2cc(N(C=O)c3ccccc3)ccc21 0.67

Entry to check: COC(=O)c1c2oc(c1C(=O)OC)C(=O)N[C@@H](C(C)C)Cn1nncc1C1(CCCCC1)NC(=O)N[C@H](CO)CC2 0.77

Entry to check: COCCCNC(=O)[C@@]1(CCS(=O)(=O)c2ccccc2)N=C(c2ccc(OCCCO)cc2)O[C@H]1c1ccccc1CN=[N+]=[N-] 1.12

Entry to check: COC(=O)C(CC#Cc1ccc2c(c1)[C@]1(C(=O)N2)[C@H](C(=O)O)[C@H]2C(=O)O[C@H](c3ccccc3)[C@H](c3ccccc3)N2[C@@H]1c1ccc(OCCO)cc1)C(=O)OC 1.2

Entry to check: C[C@@H](OCc1ccccc1)C1NC(=O)[C@@]23C(=O)N[C@@H](Cc4ccccc4)C2[C@H](C)[C@@]2(C)O[C@H]2C3/C=C/C/C=C\CNC(=O)[C@@H]2CCCN2C1=O (some centres not stated) -0.896

Entry to check: C=CCC1(CC=C)C[C@H]2CO[C@H](c3ccc(OC)cc3)N2C1=O 0.0736

Entry to check: COCCCNC(=O)[C@@]1(C)c2ccccc2C(=O)N(Cc2cc(F)cc(C(F)(F)F)c2)[C@H]1c1ccc(CO)cc1 -0.453
